# credit: patent US10364256B2

# targetOfAssay: full length Keap1 protein / full length NRF2 protein (Homo sapiens)
# Construct: full length NRF2 protein and full length Keap1 protein (Keap1 exists a dimer) are used; His
# Sequence (Q14145 whole entry): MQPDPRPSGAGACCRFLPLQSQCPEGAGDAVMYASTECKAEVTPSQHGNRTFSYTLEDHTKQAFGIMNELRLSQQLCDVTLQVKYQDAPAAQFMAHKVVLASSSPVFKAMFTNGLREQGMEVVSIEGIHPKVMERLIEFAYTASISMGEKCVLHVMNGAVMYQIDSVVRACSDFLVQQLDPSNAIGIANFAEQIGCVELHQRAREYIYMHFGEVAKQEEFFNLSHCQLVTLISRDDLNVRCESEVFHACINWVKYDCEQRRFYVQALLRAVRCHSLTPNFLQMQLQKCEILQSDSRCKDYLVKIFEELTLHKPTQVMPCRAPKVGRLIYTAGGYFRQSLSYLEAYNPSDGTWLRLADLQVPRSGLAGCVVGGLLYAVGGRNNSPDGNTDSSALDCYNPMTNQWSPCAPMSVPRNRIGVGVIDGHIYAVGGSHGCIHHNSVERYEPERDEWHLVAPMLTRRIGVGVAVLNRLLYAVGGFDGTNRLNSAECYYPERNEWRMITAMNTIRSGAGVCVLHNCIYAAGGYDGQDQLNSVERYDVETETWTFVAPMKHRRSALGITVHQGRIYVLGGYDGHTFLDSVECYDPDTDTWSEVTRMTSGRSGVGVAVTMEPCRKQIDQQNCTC
# assayDetails: NRF2-Keap1 TR-FRET Assay
# Type: binding
# appliedConditions: 25 nM Keap1-FlagHis and 50 nM biotin-NRF2 added
pIC50: −log10 of the molar value.
quantity: pIC50

• Cn1cc(C2CC2c2c(C(=O)O)cnn2-c2cccc(-c3cccc(OCC4CCCCC4)c3)c2)nn1 (stereo not shown) = 6.00 to 7.00
• CC(=O)N1CCC(c2c(C(=O)O)cnn2-c2cccc(-c3cccc(C(=O)N(C)C)c3)c2)CC1 = 4.00 to 5.00
• CC1(C)CCc2cnn(-c3cccc(-c4cccc(-n5ncc(C(=O)O)c5C5CC5)c4)c3)c21 = 6.00 to 7.00
• CCOC[C@@H]1CCCN1C(=O)c1cccc(-c2cccc(-n3ncc(C(=O)O)c3[C@@H]3C[C@H]3c3cn(C)nn3)c2)c1F = 7.00 to 8.00
• CC1(C)CCCN(C(=O)c2cccc(-c3cccc(-n4ncc(C(=O)O)c4C4CC4)c3)c2F)C1 = 6.00 to 7.00
• Cn1cc(C2CC2c2c(C(=O)O)cnn2-c2cccc(-c3cccc(OCCC(C)(C)C)c3)c2)nn1 (stereo not shown) = 6.00 to 7.00
• Cn1cc(C2CC2c2c(C(=O)O)cnn2-c2cccc(-c3cccc(OCc4ccccc4)c3)c2)nn1 (stereo not shown) = 6.00 to 7.00
• CC(Oc1cccc(-c2cccc(-n3ncc(C(=O)O)c3C3CC3c3cn(C)nn3)c2)c1)C1CCCCC1 (stereo not shown) = 6.00 to 7.00
• COCC1CCCCN1C(=O)c1cccc(-c2cccc(-n3ncc(C(=O)O)c3C3C[C@H]3c3cn(C)nn3)c2)c1F (mixture of isomers) = 7.00 to 8.00
• Cn1cc(C2CC2c2c(C(=O)O)cnn2-c2cccc(-c3cccc(-n4ncc5c4C(C)(C)CC5)c3)c2)nn1 (stereo not shown) = 7.00 to 8.00

Parameter requested: pIC50. Apply to each item below.
1. Cn1cc(C2CC2c2c(C(=O)O)cnn2-c2cccc(-c3cccc(C(=O)C4CCCCC4)c3)c2)nn1 (stereo not shown)
2. Cn1cc([C@@H]2C[C@H]2c2c(C(=O)O)cnn2-c2cccc(-c3cccc(OC(C4CCCCC4)C(F)(F)F)c3)c2)nn1 (mixture of isomers)
3. CN(C(=O)c1cccc(-c2cccc(-n3ncc(C(=O)O)c3C3CC3)c2)c1F)C1CCCC1
4. CC(C)CN(C)C(=O)c1cccc(-c2cccc(-n3ncc(C(=O)O)c3[C@@H]3C[C@H]3c3cn(C)nn3)c2)c1F (racemic)
5. CC1CCC(C)N(C(=O)c2cccc(-c3cccc(-n4ncc(C(=O)O)c4C4CC4)c3)c2F)C1 (stereo not shown)
6. Cn1cc([C@@H]2C[C@H]2c2c(C(=O)O)cnn2-c2cccc(-c3cccc(OC[C@H]4CC[C@H](C(F)(F)F)CC4)c3)c2)nn1 (racemic)

6.00 to 7.00
6.00 to 7.00
5.00 to 6.00
7.00 to 8.00
5.00 to 6.00
6.00 to 7.00

----------
Give IC50 for every item shown.
# targetOfAssay: full length Keap1 protein / full length NRF2 protein (Homo sapiens)
# Construct: full length NRF2 protein and full length Keap1 protein (Keap1 exists a dimer) are used; His
# assayDetails: NRF2-Keap1 TR-FRET Assay
# Type: binding
# appliedConditions: 25 nM Keap1-FlagHis and 50 nM biotin-NRF2 added

* CCCCC1CCc2cnn(-c3cccc(-c4cccc(-n5ncc(C(=O)O)c5C5CC5)c4)c3)c21 (centres unmarked) [Example 206] | 1 to 10 µM
* O=C(O)c1cnn(-c2cccc(-c3cccc(C(=O)N4CCCC5CCCCC54)c3F)c2)c1C1CC1 (centres unmarked) [Example 31] | 1 to 10 µM

Parameter requested: IC50. Apply to each item below.
1. Cn1cc([C@@H]2C[C@H]2c2c(C(=O)O)cnn2-c2cccc(-c3cccc(CN4Cc5ccccc5OC(C)(C)C4)c3)c2)nn1 (racemic) [Example 254]
2. CCC[C@@H]1CCCCN1C(=O)c1cccc(-c2cccc(-n3ncc(C(=O)O)c3C3CC3c3cnoc3C)c2)c1 (some centres unmarked) [Example 159]
3. Cc1nnc(-c2cccc(-c3cccc(-n4ncc(C(=O)O)c4C4CC4)c3)c2)o1 [Example 210]
4. CC(Oc1cccc(-c2cccc(-n3ncc(C(=O)O)c3[C@H]3C[C@@H]3c3cn(C)nn3)c2)c1)C1CCCCCC1 (mixture of isomers) [Example 230]
5. Cn1cc([C@H]2C[C@@H]2c2c(C(=O)O)cnn2-c2cccc(-c3cccc(OCc4cncnc4)c3)c2)nn1 (racemic) [Example 236]
6. Cn1cc(C2CC2c2c(C(=O)O)cnn2-c2cccc(-c3cccc(OCC4CCCOC4)c3)c2)nn1 (centres unmarked) [Example 169]
7. CC1CC(C)CN(C(=O)c2cccc(-c3cccc(-n4ncc(C(=O)O)c4[C@@H]4C[C@H]4c4cn(C)nn4)c3)c2F)C1 (mixture of isomers) [Example 263]

0.1 to 1 µM
0.01 to 0.1 µM
> 100 µM
0.01 to 0.1 µM
1 to 10 µM
0.1 to 1 µM
0.01 to 0.1 µM

Parameter requested: IC50. Apply to each item below.
1. COCCC(COc1cccc(-c2cccc(-n3ncc(C(=O)O)c3C3CC3c3cn(C)nn3)c2)c1)C1CCCCC1 (centres unmarked) [Example 168]
2. CC[C@@H]1CN(Cc2cccc(-c3cccc(-n4ncc(C(=O)O)c4C4CC4c4cn(C)nn4)c3)c2)Cc2ccccc2O1 (some centres unmarked) [Example 129]
3. Cn1cc([C@H]2C[C@@H]2c2c(C(=O)O)cnn2-c2cccc(-c3cccc(OCC4CCCC(Cl)C4)c3)c2)nn1 (mixture of isomers) [Example 187]

0.1 to 1 µM
0.01 to 0.1 µM
0.1 to 1 µM

Parameter requested: IC50. Apply to each item below.
1. CCn1cc([C@H]2C[C@@H]2c2c(C(=O)O)cnn2-c2cccc(-c3cccc(OC(C)C4CCCCC4)c3)c2)nn1 (mixture of isomers) [Example 192]
2. Cn1cc(C2CC2c2c(C(=O)O)cnn2-c2cccc(-c3cccc(OCc4ccccc4F)c3)c2)nn1 (centres unmarked) [Example 222]

1. 0.1 to 1 µM
2. 0.1 to 1 µM
